- systemTested: MMP-13 (Homo sapiens)
- Construct: made in house; host or cells: baculovirus / insect cells
- assayOverview: In vitro metalloprotease inhibition, fluorogenic MCA peptide substrate
- Type: biochemical
- experimentalContext: recombinant human enzyme, APMA-activated, room temperature, pH 7.5; read-out: MMP-13 IC50
pIC50: −log10 of the molar value.
Would you please tag the item yes (1) when its pIC50 is 9 or above, and no (0) when it is below?

Recorded results for 3 compounds are shown here.
compound: CC(C)(C)NC(=O)NC(CS(=O)(=O)c1ccc(Sc2ccccc2)cc1)C(=O)NO (stereo not drawn) [Example 45]
answerLabel: no (0)
--
compound: CN(C(=O)OC(C)(C)C)C(C)(CS(=O)(=O)c1ccc(NC(=O)c2ccccc2)cc1)C(=O)NO (stereo not drawn)
answerLabel: no (0)
--
compound: CCCCC(=O)NC(CS(=O)(=O)c1ccc(OC)cc1)C(=O)NO (stereo not drawn)
answerLabel: no (0)

Qu. Tell me whether pIC50 is at least 9 here: O=C(NC(CS(=O)(=O)c1ccc(Sc2ccccc2)cc1)C(=O)NO)c1ccccc1-c1ccccc1 (stereo not drawn)
Ans. yes (1)

Qu. Proceed to O=C(N[C@@H](CS(=O)(=O)c1ccc(Oc2ccccc2)cc1)C(=O)NO)c1ccnc2ccccc12 [Example 51]
Ans. yes (1)

Qu. Proceed to CC(C)(C)OC(=O)NC(C)(CS(=O)(=O)c1ccc(NC(=O)c2ccccc2)cc1)C(=O)NO (stereo not drawn)
Ans. no (0)

Qu. Proceed to COc1ccc(S(=O)(=O)CC(NC(=O)CNC(=O)OCc2ccccc2)C(=O)NO)cc1 (stereo not drawn)
Ans. yes (1)
